Tested on: K. pneumoniae biofilm
Type: cell-based, Klebsiella pneumoniae
Conditions: 24 h
Where a SMILES comes first, the peptide text is derived from it. The star is where a group is joined. βGlcNAc = CC(=O)N[C@@H]1[C@@H](O)[C@H](O)[C@@H](CO)O[C@H]1*; Stearoyl = CCCCCCCCCCCCCCCCCC(=O)*
measurement name: MBEC (µg/mL)

[[record]]
compound = "CCCCCCCCCCCCCCCCCC(=O)N[C@@H](CCCNC(=N)N)C(=O)N[C@@H](CCCNC(=N)N)C(=O)N[C@@H](CO)C(N)=O [Peptide 9, C18-RRS-NH2] (Stearoyl-Arg-Arg-Ser-NH2)"
measurement_name = "MBEC"
units_of_measure = "µg/mL"
obs_value = 512

[[record]]
compound = "CCCCCCCCCCCCCCCCCC(=O)N[C@@H](CO[C@@H]1O[C@H](CO)[C@@H](O)[C@H](O)[C@H]1NC(C)=O)C(=O)N[C@@H](CCCNC(=N)N)C(=O)N[C@@H](CCCNC(=N)N)C(N)=O [Peptide 16, C18-S(GlcNAc)RR-NH2] (Stearoyl-Ser(βGlcNAc)-Arg-Arg-NH2)"
measurement_name = "MBEC"
units_of_measure = "µg/mL"
obs_value = 256

[[record]]
compound = "CCCCCCCCCCCCCCCCCC(=O)N[C@@H](CCCNC(=N)N)C(=O)N[C@@H](CO[C@@H]1O[C@H](CO)[C@@H](O)[C@H](O)[C@H]1NC(C)=O)C(=O)N[C@@H](CCCNC(=N)N)C(N)=O [Peptide 17, C18-RS(GlcNAc)R-NH2] (Stearoyl-Arg-Ser(βGlcNAc)-Arg-NH2)"
measurement_name = "MBEC"
units_of_measure = "µg/mL"
obs_value = 256

[[record]]
compound = "CCCCCCCCCCCCCCCCCC(=O)N[C@@H](CCCNC(=N)N)C(=O)N[C@@H](CCCNC(=N)N)C(=O)N[C@@H](CO[C@@H]1O[C@H](CO)[C@@H](O)[C@H](O)[C@H]1NC(C)=O)C(N)=O [Peptide 18, C18-RRS(GlcNAc)-NH2] (Stearoyl-Arg-Arg-Ser(βGlcNAc)-NH2)"
measurement_name = "MBEC"
units_of_measure = "µg/mL"
obs_value = 128

[[record]]
compound = "CCCCCCCCCCCCCCCCCC(=O)N[C@@H](CCCNC(=N)N)C(=O)N[C@@H](CO)C(=O)N[C@@H](CCCNC(=N)N)C(N)=O [Peptide 8, C18-RSR-NH2] (Stearoyl-Arg-Ser-Arg-NH2)"
measurement_name = "MBEC"
units_of_measure = "µg/mL"
obs_value = 512

[[record]]
compound = "CCCCCCCCCCCCCCCCCC(=O)N[C@@H](CO)C(=O)N[C@@H](CCCNC(=N)N)C(=O)N[C@@H](CCCNC(=N)N)C(N)=O [Peptide 7, C18-SRR-NH2] (Stearoyl-Ser-Arg-Arg-NH2)"
measurement_name = "MBEC"
units_of_measure = "µg/mL"
obs_value = 512

